Source: ChEMBL document CHEMBL1133064

Here we list compounds with their recorded Ki when tested on 5-hydroxytryptamine receptor 2A (Homo sapiens, UniProt P28223).
Sequence (P28223 whole entry): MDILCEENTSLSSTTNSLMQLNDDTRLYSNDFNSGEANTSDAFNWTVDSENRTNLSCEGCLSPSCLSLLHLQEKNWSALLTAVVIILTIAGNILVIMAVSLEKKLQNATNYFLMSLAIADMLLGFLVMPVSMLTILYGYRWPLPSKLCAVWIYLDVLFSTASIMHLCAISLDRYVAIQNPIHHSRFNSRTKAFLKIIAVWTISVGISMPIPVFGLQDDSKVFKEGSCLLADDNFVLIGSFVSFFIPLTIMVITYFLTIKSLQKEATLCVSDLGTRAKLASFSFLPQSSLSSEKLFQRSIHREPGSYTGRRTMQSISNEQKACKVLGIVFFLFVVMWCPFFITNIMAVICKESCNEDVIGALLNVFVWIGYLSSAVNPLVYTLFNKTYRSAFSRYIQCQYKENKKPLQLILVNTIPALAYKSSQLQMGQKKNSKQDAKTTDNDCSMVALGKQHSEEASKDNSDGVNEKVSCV
Response body: numeric value in nM, unit text excluded.

Cc1ncccc1Oc1ccc(NC(=O)N2CCc3c2cc(Cl)c(C)c3Cl)cn1 63.1
Cc1ncccc1Oc1ccc(NC(=O)N2CCc3cc(Cl)c(Cl)cc32)cn1 251
Cc1cc2c(cc1Cl)N(C(=O)Nc1cnc(Oc3cccnc3C)c(C)c1)CC2 126

What Ki appears in the records for this compound with 5-hydroxytryptamine receptor 2A (Homo sapiens, UniProt P28223)? Cc1cc2c(cc1C(F)(F)F)N(C(=O)Nc1ccc(Oc3cccnc3C)nn1)CC2
398

Query the reported Ki for 5-hydroxytryptamine receptor 2A (Homo sapiens, UniProt P28223); item: Cc1cc2c(cc1C(F)(F)F)N(C(=O)Nc1cnc(Oc3cccnc3C)cn1)CC2
631

Could you share what Ki was measured for Cc1cc2c(cc1F)N(C(=O)Nc1ccc(Oc3cccnc3C)nc1)CC2 , tested on 5-hydroxytryptamine receptor 2A (Homo sapiens, UniProt P28223)?
794

So what Ki did Cc1cc2c(cc1C(F)(F)F)N(C(=O)Nc1ccc(Oc3cncnc3C)nc1)CC2 get with 5-hydroxytryptamine receptor 2A (Homo sapiens, UniProt P28223)?
79.4

# get_value(readout= Ki, system= 5-hydroxytryptamine receptor 2A (Homo sapiens, UniProt P28223)) for Cc1cc2c(cc1Cl)N(C(=O)Nc1cnc(Oc3cccnc3C)c(Cl)c1)CC2
126

Lab request: please report Ki under test system 5-hydroxytryptamine receptor 2A (Homo sapiens, UniProt P28223) for CCc1cc2c(cc1C(F)(F)F)N(C(=O)Nc1ccc(Oc3cccnc3C)nc1)CC2
501

---

Record set of pKi for target or system 5-hydroxytryptamine receptor 2B (Homo sapiens).
Quick note: pKi values are minus log10 of concentrations in mol/L.

Sample records with pKi:
COc1cc2c(cc1C(F)(F)F)N(C(=O)Nc1cnc(Oc3cccnc3C)cc1C)CC2 6.60
CCc1ncccc1Oc1ccc(NC(=O)N2CCc3cc(C)c(Cl)cc32)cn1 7.30
Cc1cc2c(cc1C(F)(F)F)N(C(=O)Nc1cnc(Oc3cccnc3C)cn1)CC2 7.10
Cc1ncccc1Oc1ccc(NC(=O)N2CCc3cc(I)ccc32)cn1 6.50
Cc1cc2c(cc1Cl)N(C(=O)Nc1ccc(Oc3cnccc3C)nc1)CC2 7.50
Cc1cc2c(cc1Cl)N(C(=O)Nc1ccc(Oc3cccnc3Cl)nc1)CC2 7.30
Cc1ncccc1Oc1ccc(NC(=O)N2CCc3cc(Cl)ccc32)cn1 5.70
Cc1cc2c(cc1Cl)N(C(=O)Nc1ccc(Oc3cnccc3Cl)nc1)CC2 7.90

Write down the reported pKi of Cc1ncccc1Oc1ccc(NC(=O)N2CCc3cc(Br)ccc32)cn1 , test system: 5-hydroxytryptamine receptor 2B (Homo sapiens).
Sequence (P41595 whole entry): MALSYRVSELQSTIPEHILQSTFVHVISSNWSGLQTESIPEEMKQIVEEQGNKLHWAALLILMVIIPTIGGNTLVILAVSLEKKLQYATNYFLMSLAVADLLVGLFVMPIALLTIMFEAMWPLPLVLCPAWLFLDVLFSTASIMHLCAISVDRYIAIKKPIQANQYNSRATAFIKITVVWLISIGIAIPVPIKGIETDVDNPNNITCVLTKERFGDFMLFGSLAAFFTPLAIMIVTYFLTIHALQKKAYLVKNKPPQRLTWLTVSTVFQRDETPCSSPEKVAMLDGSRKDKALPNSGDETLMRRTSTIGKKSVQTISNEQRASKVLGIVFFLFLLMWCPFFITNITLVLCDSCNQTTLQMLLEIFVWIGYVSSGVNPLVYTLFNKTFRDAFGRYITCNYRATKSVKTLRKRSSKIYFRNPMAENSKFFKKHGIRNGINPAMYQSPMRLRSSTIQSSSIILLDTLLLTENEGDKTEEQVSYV
6.20

Which measured pKi belongs to Cc1cc2c(cc1Cl)CCN2C(=O)Nc1ccc(Oc2cccnc2C)nc1 , tested on 5-hydroxytryptamine receptor 2B (Homo sapiens)?
6.90

Recorded pKi for Cc1ncccc1Oc1ccc(NC(=O)N2CCc3cc(F)ccc32)cn1 with 5-hydroxytryptamine receptor 2B (Homo sapiens), please?
5.30

Any idea what pKi came out for Cc1ncccc1Oc1ccc(NC(=O)N2CCc3c(Cl)cccc32)cn1 on 5-hydroxytryptamine receptor 2B (Homo sapiens)?
5.60

---

Measured pKi (5-hydroxytryptamine receptor 2A (Homo sapiens, UniProt P28223))
When answering, recall that pKi equals minus log10 of the concentration in mol/L, and write that number alone.

Cc1ncccc1Oc1ccc(NC(=O)N2CCc3c2ccc(Cl)c3Cl)cn1 5.50
CSc1cc2c(cc1C(F)(F)F)N(C(=O)Nc1ccc(Oc3cccnc3C)nc1)CC2 6.60
Cc1ncccc1Oc1ccc(NC(=O)N2CCc3ccc(Cl)cc32)cn1 6.50

Now look at this one.
Any idea what pKi came out for Cc1ncccc1Oc1ccc(NC(=O)N2CCc3cc(Br)c(C(F)(F)F)cc32)cn1 on 5-hydroxytryptamine receptor 2A (Homo sapiens, UniProt P28223)?
6.90

---

Target: Serotonin receptor (2b and 2c) (Homo sapiens) (UniProt P41595+P28335)
Assay: Selectivity expressed as ratio of serotonin 5-HT2C receptor over serotonin 5-HT2B receptor
Assay type: protein assay
Response field label takes fulfilled when Selectivity is strictly below 100 and not fulfilled in all other cases.

# count of solved cases: 3
COc1cc2c(cc1C(F)(F)F)N(C(=O)Nc1cnc(Oc3cccnc3C)cc1C)CC2 fulfilled
Cc1ncccc1Oc1ccc(NC(=O)N2CCc3ccc(Cl)cc32)cn1 not fulfilled
COc1cc2c(cc1C(F)(F)F)N(C(=O)Nc1ccc(Oc3cccnc3C)nc1)CC2 fulfilled

Selectivity strictly < 100 for this compound? Cc1ncccc1Oc1ccc(NC(=O)N2CCc3c(Cl)cccc32)cn1
not fulfilled

Does the reported Selectivity of the following compound sit strictly below 100? Cc1ncccc1Oc1ccc(NC(=O)N2CCc3c(Br)cccc32)cn1
not fulfilled

Given Cc1cc2c(cc1C(F)(F)F)N(C(=O)Nc1ccc(Oc3cccnc3C)nn1)CC2 , is recorded Selectivity strictly lower than 100?
fulfilled

Regarding Cc1ncccc1Oc1ccc(NC(=O)N2CCc3ccccc32)cn1 , kindly confirm whether its Selectivity is beneath 100.
fulfilled

hey, is Selectivity for Cc1cc2c(cc1Cl)N(C(=O)Nc1cnc(Oc3cccnc3C)c(C)c1)CC2 lower than 100 or not?
fulfilled

---

Target: Serotonin receptor (2b and 2c) (Homo sapiens) (UniProt P41595+P28335)
Assay: Selectivity expressed as ratio of serotonin 5-HT2C receptor over serotonin 5-HT2B receptor
Format: protein assay
property_measured: Selectivity
Answer using only a numeral; do not append any unit.

Please review the entries below; each comes with its answer.
Cc1cc2c(cc1Cl)N(C(=O)Nc1cnc(Oc3cccnc3C)nc1)CC2 20
Cc1cc2c(cc1Cl)N(C(=O)Nc1ccc(Oc3cnccc3C)nc1)CC2 30

Give the measured Selectivity of Cc1cc2c(cc1Br)N(C(=O)Nc1ccc(Oc3cccnc3C)nc1)CC2 .
80

Tell me the measured Selectivity of Cc1cc2c(cc1Cl)N(C(=O)Nc1ccc(Oc3cccnc3C(C)C)nc1)CC2 , please.
2

What value of measured Selectivity is listed for Cc1ncccc1Oc1ccc(NC(=O)N2CCc3cc(I)ccc32)cn1 ?
100

Dear colleague, I am looking for the recorded Selectivity of the following compound: Cc1ncccc1Oc1ccc(NC(=O)N2CCc3cc(F)ccc32)cn1
130

Quick one: Selectivity of Cc1cc2c(cc1Cl)N(C(=O)Nc1cnc(Oc3cccnc3C)c(Cl)c1)CC2 ?
30

---

Target: Serotonin 2 receptors; 5-HT2a & 5-HT2c (Homo sapiens) (UniProt P28223+P28335)
Sequence (P28223 whole entry, looked up): as the sequence (P28223 whole entry) above
Sequence (P28335 whole entry, looked up): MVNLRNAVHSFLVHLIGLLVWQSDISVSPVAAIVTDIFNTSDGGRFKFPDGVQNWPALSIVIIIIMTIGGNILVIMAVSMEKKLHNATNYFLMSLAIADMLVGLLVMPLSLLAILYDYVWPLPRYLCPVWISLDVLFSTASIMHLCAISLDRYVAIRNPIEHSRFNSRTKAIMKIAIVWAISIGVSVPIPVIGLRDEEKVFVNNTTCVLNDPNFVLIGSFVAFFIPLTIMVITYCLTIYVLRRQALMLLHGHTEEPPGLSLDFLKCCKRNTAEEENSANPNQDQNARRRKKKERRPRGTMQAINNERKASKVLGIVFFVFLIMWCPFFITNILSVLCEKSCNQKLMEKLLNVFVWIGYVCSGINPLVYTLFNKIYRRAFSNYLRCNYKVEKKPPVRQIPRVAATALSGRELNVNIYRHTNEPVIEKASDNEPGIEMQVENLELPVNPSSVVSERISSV
Experiment: Selectivity expressed as ratio of serotonin 5-HT2C receptor over serotonin 5-HT2A receptor
Format: protein assay
Reported Selectivity values for the following molecules.
Just the number, please, no unit after it.

Solved cases (5 shown):
Cc1cc2c(cc1C(F)(F)F)N(C(=O)Nc1cnc(Oc3cccnc3C)cn1)CC2 320
Cc1cc2c(cc1Cl)N(C(=O)Nc1ccc(Oc3cnccc3Cl)nc1)CC2 30
Cc1ncccc1Oc1ccc(NC(=O)N2CCc3ccc(C(F)(F)F)cc32)cn1 30
Cc1cc2c(cc1Cl)N(C(=O)Nc1ccc(Oc3cccnc3C)nn1)CC2 800
CCCc1ncccc1Oc1ccc(NC(=O)N2CCc3cc(C)c(Cl)cc32)cn1 100

I have this molecule here, Cc1cc2c(cc1F)N(C(=O)Nc1ccc(Oc3cccnc3C)nc1)CC2 , and I need its recorded Selectivity.
500

// returns reported Selectivity for input Cc1cc2c(cc1C(F)(F)F)N(C(=O)Nc1ccc(Oc3cccnc3C)nn1)CC2
130

For the molecule shown here, Cc1cc2c(cc1Cl)CCN2C(=O)Nc1ccc(Oc2cccnc2C)nc1 , give the reported Selectivity.
130

---

Molecular target: Serotonin receptor (2b and 2c) (Homo sapiens) (UniProt P41595+P28335)
Test: Selectivity expressed as ratio of serotonin 5-HT2C receptor over serotonin 5-HT2B receptor
Assay type: protein assay
T if Selectivity is below 100. F if not; exact matches included in F.

Consider the following illustrative entries.
Cc1cc2c(cc1Cl)N(C(=O)Nc1ccc(Oc3cnccc3Cl)nc1)CC2 T
CCCc1ncccc1Oc1ccc(NC(=O)N2CCc3cc(C)c(Cl)cc32)cn1 T
Cc1cc2c(cc1Cl)N(C(=O)Nc1ccc(Oc3cccnc3Cl)nc1)CC2 T
Cc1ncccc1Oc1ccc(NC(=O)N2CCc3ccc(C(F)(F)F)cc32)cn1 T
Cc1ncccc1Oc1ccc(NC(=O)N2CCc3c2cc(Cl)c(C)c3Cl)cn1 T

State whether 100 exceeds Selectivity recorded for Cc1ncccc1Oc1ccc(NC(=O)N2CCc3cc(C(F)(F)F)ccc32)cn1 .
F

Below 100 on Selectivity? Entry Cc1ncccc1Oc1ccc(NC(=O)N2CCc3cc(Cl)c(Cl)cc32)cn1
F

Dear reviewer, please state whether Cc1ncccc1Oc1ccc(NC(=O)N2CCc3c2ccc(Cl)c3Cl)cn1 has Selectivity strictly beneath 100.
F

Record Cc1cc2c(cc1C(F)(F)F)N(C(=O)Nc1ccc(Oc3cncnc3C)nc1)CC2 : is its Selectivity strictly below 100?
T
